Below, each of the binders is paired with its reported pKd value.
# measured on: T1, recombinant OX40 protein with a His tag (Cat: 10481-H08H, Sino Biological) (UniProt P43489 29-216)
# T1 construct: Bought protein; also called OX40-His (bought); not shown: His tag
# T1 sequence (looked up): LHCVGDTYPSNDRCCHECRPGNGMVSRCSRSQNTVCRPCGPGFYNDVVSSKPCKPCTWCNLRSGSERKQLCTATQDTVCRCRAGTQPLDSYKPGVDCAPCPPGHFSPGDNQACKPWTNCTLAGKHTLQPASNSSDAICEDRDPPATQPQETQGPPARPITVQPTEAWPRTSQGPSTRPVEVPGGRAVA
# protocol notes: SPR, BIAcore T-200; antibody captured by anti-human IgG, OX40-His flowed; Test 2
// pKd: -log10(molar conc.)

| binder | pKd |
| --- | --- |
| ch445 (antibody, V domains shown, also called Mu445 variable domains fused to human IgG1wt/kappa constant regions) VH: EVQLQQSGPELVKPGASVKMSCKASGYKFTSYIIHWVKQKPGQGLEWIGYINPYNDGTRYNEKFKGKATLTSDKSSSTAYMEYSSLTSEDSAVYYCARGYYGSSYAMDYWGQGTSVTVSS VL: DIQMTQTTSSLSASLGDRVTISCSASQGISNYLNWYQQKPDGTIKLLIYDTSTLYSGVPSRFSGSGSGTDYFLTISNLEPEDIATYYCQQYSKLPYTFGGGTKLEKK | 8.20 |
| 445-1 (antibody, V domains shown) VH: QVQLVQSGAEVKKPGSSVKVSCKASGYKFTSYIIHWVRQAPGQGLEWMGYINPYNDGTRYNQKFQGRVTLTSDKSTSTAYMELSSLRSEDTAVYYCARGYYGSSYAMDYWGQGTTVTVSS VL: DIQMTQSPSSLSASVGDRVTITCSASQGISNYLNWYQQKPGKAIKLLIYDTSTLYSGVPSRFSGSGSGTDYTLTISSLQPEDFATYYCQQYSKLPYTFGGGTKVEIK | 7.79 |
| 445-2 (antibody, V domains shown) VH: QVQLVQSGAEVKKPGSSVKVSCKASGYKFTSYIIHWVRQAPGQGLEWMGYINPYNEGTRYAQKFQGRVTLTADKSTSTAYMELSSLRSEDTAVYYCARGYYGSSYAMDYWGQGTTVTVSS VL: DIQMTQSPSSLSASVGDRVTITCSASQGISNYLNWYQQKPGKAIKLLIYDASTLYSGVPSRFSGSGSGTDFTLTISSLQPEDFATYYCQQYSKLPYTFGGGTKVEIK | 7.89 |

Now look at this one.
Give its pKd value. Item: 445-3 (antibody, V domains shown) VH: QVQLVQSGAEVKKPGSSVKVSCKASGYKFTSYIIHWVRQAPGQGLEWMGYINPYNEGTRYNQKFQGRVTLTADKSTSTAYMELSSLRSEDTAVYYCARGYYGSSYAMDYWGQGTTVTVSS VL: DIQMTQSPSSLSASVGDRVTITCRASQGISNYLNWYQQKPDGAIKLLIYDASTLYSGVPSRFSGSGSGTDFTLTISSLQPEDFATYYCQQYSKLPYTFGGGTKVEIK
8.01
